Where do these numbers come from? They come from patent US20140213576A1.

target: JAK1 (Homo sapiens, UniProt P23458); construct: Recombinant human JAK1 (catalytic domain, amino acids 866-1154; catalog number PV4774); assay: JAK1 Ki determination assay; conditions: Lineweaver-Burk, varying ATP, Ulight-JAK-1 peptide; read-out: Ki against JAK1
Sequence (P23458 866-1154): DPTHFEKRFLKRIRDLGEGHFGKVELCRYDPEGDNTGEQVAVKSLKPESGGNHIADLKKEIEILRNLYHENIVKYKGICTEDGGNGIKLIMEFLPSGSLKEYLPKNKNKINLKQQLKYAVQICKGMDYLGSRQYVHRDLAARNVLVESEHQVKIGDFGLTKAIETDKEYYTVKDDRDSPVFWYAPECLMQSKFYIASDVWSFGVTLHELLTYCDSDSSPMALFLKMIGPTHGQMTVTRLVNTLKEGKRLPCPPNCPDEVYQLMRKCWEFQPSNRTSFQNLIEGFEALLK
Endpoint label: Ki (nM)

CCc1cc(C2CN(S(C)(=O)=O)C2)ncc1N(C)c1cc2c(cn1)ncn2C [Compound 1]
9.21

====

Molecular target: JAK2 (Homo sapiens)
Construct: Recombinant human JAK2 catalytic domain (amino acids 808-1132; catalog number PV4210)
Sequence (O60674 808-1132): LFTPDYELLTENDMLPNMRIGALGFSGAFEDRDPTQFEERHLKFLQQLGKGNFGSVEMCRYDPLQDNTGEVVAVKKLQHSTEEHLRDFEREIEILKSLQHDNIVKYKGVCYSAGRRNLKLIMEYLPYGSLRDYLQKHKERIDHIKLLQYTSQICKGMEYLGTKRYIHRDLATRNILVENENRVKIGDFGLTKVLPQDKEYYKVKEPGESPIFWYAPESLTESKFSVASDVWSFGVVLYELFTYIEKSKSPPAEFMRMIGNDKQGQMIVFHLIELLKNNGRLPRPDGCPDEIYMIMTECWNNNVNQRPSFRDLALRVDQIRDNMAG
Test: JAK2 Ki determination assay (kinase tracer 236 binding)
Details: binding experiment, 25 nM kinase tracer 236; read-out: Ki against JAK2
Method: JAK2 (Invitrogen, PV4210) was used at a final concentration of 5 nM. The binding experiment was performed in 50 mM Hepes pH 7.5, 0.01% Brij-35, 10 mM MgCl2, 1 mM EGTA using 25 nM kinase tracer 236 (Invitrogen, PV5592) and 2 nM Eu-anti-GST (Invitrogen, PV5594) with varying compound concentrations. Detection of tracer was performed according to the manufacturer's procedure.
Endpoint label: Ki (nM)

CCc1cc(C2CN(S(C)(=O)=O)C2)ncc1N(C)c1cc2c(cn1)ncn2C
62.6
